Value source: patent US10385022B2

# pEC50 listing for each entry below
target: human GPBAR1 receptor (Homo sapiens (Human)); experiment: functional cAMP assay in CHO-dhfr(minus) cells expressing human GPBAR1 receptors; conditions: CHO-dhfr(minus) cells expressing human GPBAR1, 30 min at 30° C.
Sequence (Q8TDU6 whole entry): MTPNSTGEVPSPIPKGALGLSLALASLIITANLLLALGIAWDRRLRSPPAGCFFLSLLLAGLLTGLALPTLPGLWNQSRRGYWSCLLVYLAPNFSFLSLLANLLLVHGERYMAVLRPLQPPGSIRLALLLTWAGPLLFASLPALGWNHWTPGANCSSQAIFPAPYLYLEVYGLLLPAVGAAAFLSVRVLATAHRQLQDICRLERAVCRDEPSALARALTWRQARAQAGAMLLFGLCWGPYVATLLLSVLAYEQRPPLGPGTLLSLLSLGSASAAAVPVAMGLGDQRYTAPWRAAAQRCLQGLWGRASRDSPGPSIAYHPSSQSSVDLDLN
pEC50: −log10 of the molar value.

- structureNotation: "COc1cc(F)ccc1-c1ccncc1N(Cc1nc(C)co1)C(=O)c1cc(C(F)(F)F)cc(S(C)(=O)=O)c1"
  pEC50: 5.61
- structureNotation: "Cc1ccccc1-c1ccncc1N(C)C(=O)c1ccc(C(F)(F)F)cc1"
  pEC50: 5.56
- structureNotation: "CN(C(=O)c1cc(C(F)(F)F)cc(C(F)(F)F)c1)c1cnccc1-c1cccc(F)c1Cl"
  pEC50: 6.99
- structureNotation: "COc1cc(F)ccc1-c1ccncc1N(C)C(=O)c1cc(C(F)(F)F)cc(S(=O)(=O)CCCCC(N)=O)c1"
  pEC50: 7.27
- structureNotation: "Cc1ccccc1-c1cc(N2CCN(S(C)(=O)=O)CC2)ncc1N(C)C(=O)c1cc(C(F)(F)F)cc(C(F)(F)F)c1"
  pEC50: 6.47
- structureNotation: "Cc1cc(-c2ccccc2C)c(N(C)C(=O)c2cc(C(F)(F)F)cc(C(F)(F)F)c2)cn1"
  pEC50: 7.12
- structureNotation: "Cc1cn[nH]c1-c1ccncc1N(C)C(=O)c1cc(C(F)(F)F)cc(C(F)(F)F)c1"
  pEC50: 6.02
- structureNotation: "COc1cccc(-c2ccncc2N(C)C(=O)c2cc(C(F)(F)F)cc(C(F)(F)F)c2)c1OC"
  pEC50: 5.56
- structureNotation: "COc1cc(F)ccc1-c1ccncc1N(C)C(=O)c1cc(C(F)(F)F)cc(S(=O)(=O)CCN)c1"
  pEC50: 6.98
- structureNotation: "CN(C)C(=O)CN(C(=O)c1cc(C(F)(F)F)cc(C(F)(F)F)c1)c1cnccc1-c1ccccc1Cl"
  pEC50: 5.61
- structureNotation: "COc1cccc(F)c1-c1ccncc1N(CC(N)=O)C(=O)c1cc(C(F)(F)F)nc(C(F)(F)F)c1"
  pEC50: 7.48
- structureNotation: "COc1cc(-c2ccccc2C)c(N(C)C(=O)c2cc(C(F)(F)F)cc(C(F)(F)F)c2)cn1"
  pEC50: 6.40
- structureNotation: "Cc1ccccc1-c1ccncc1N(C)C(=O)c1ccc(Cl)c(Cl)c1"
  pEC50: 6.62
- structureNotation: "CN(C(=O)c1cc(O)cc(C(F)(F)F)c1)c1cnccc1-c1ccccc1Cl"
  pEC50: 5.86
- structureNotation: "COc1cc(F)ccc1-c1ccncc1N(C)C(=O)c1cc(C(F)(F)F)cc(S(=O)(=O)C2CN(S(N)(=O)=O)C2)c1"
  pEC50: 7.06
